System: mitochondrial respiration
Assay: Inhibition of mitochondrial respiration (rate of reduction of cytochrome c in isolated mitochondria), yeast
Assay type: biochemical, Saccharomyces cerevisiae
Details: DMSO control
Description: In order to determine the effect of the compounds according to the invention on mitochondrial respiration it is first necessary to isolate the mitochondria from the organisms being investigated. […] The inhibition was determined in each case at a test substance concentration of 1.8/10^-5mol/l .
Reported values of % inhibition of respiration at 1.8 × 10^-5 mol/l test substance, Saccharomyces cerevisiae for individual entries
readout_label: % inhibition of respiration at 1.8 × 10^-5 mol/l test substance, Saccharomyces cerevisiae (%)

                           molecular_string  uom  reported_measurement
0  COC(=O)/C=C(/OC)c1ccccc1/C=C\c1noc(-c2ccc(Cl)cc2)c1C    %                    99
1  COC(=O)/C=C(/OC)c1ccccc1COc1nc(-c2ccccc2)cs1    %                    99
2  COC(=O)/C=C(/OC)c1ccccc1/C=C/c1nnc(-c2ccccc2)s1    %                    99
3      COC(=O)/C=C(/OC)c1ccccc1/C=C/c1cccs1    %                    98
4  CCCCOc1ccc(OCc2ccccc2/C(=C\C(=O)OC)OC)cc1    %                    98
5  COC(=O)/C=C(/OC)c1ccccc1/C=C/c1nc(-c2ccc(F)cc2)no1    %                    99
6      COC(=O)/C=C(/OC)c1ccccc1/C=C\c1cccs1    %                    94
7  COC(=O)/C=C(/OC)c1ccccc1/C=C\c1csc(-c2ccccc2)n1    %                    58
8  CO/N=C(\C)c1ccc(OCc2ccccc2/C(=C\C(N)=O)OC)c(C)c1    %                    99

----------
tested on: mitochondrial respiration; test: Inhibition of mitochondrial respiration (rate of reduction of cytochrome c in isolated mitochondria), yeast; type: biochemical, Saccharomyces cerevisiae; details: DMSO control
Reported values of % inhibition of respiration at 1.8 × 10^-5 mol/l test substance, Saccharomyces cerevisiae for individual entries
readout_label: % inhibition of respiration at 1.8 × 10^-5 mol/l test substance, Saccharomyces cerevisiae (%)

In [3]: df
Out[3]:
                                   compound  reported_measurement
0  COC(=O)/C=C(/OC)c1ccccc1Oc1cccc(C)c1 [Compound 1.90]                    85
1  COC(=O)/C=C(/OC)c1ccccc1/C=C/C1CCOC(c2ccccc2)C1 (stereo not shown) [Compound 1a.331]                    79
2  COC(=O)/C=C(/OC)c1ccccc1/C=C/c1ccccc1[N+](=O)[O-] [Compound 1a.238]                    99
3  COC(=O)/C=C(/OC)c1ccccc1/C=C\c1cccc(C(F)(F)F)c1 [Compound 1a.246]                    84

----------
system: mitochondrial respiration; experiment: Inhibition of mitochondrial respiration (rate of reduction of cytochrome c in isolated mitochondria), yeast; assay type: biochemical, Saccharomyces cerevisiae; details: DMSO control
Reported values of % inhibition of respiration at 1.8 × 10^-5 mol/l test substance, Saccharomyces cerevisiae for individual entries
readout_label: % inhibition of respiration at 1.8 × 10^-5 mol/l test substance, Saccharomyces cerevisiae (%)

>>> print(df.to_string())
                                    molecule              tested_target  reported_measurement
 0  COC(=O)/C=C(/OC)c1ccccc1COc1nc(-c2ccccc2)sc1C [Compound 1a.182]  mitochondrial respiration                    98
 1  CO/N=C(\C)c1ccc(OCc2ccccc2/C(C)=C/C(=O)OC)c(C)c1 [Compound 1a.113]  mitochondrial respiration                    80
 2  COC(=O)/C=C(/OC)c1ccccc1/C=C\c1ccccc1[N+](=O)[O-] [Compound 1a.239]  mitochondrial respiration                    44
 3  CCOC(=O)/C=C(/OC)c1ccccc1COc1ccc(/C(C)=N/OC)cc1C [Compound 1a.74]  mitochondrial respiration                    99
 4  COC(=O)/C=C(/OC)c1ccccc1/C=C\c1ccc(-c2ccccc2)cc1 [Compound 1a.269]  mitochondrial respiration                    96
 5  COC(=O)/C=C(/OC)c1ccccc1/C=C/c1ccc(-c2ccccc2)cc1 [Compound 1a.268]  mitochondrial respiration                    95
 6  COC(=O)/C=C(/OC)c1ccccc1/C=C/c1coc(-c2ccc(Cl)cc2)n1 [Compound 1a.302]  mitochondrial respiration                    97
 7  COC(=O)/C=C(/OC)c1ccccc1/C=C\c1coc(-c2ccc(Cl)cc2)n1 [Compound 1a.303]  mitochondrial respiration                    98
 8  COC(=O)/C=C(/C)c1ccccc1COc1ccccc1C [Compound 1a.108]  mitochondrial respiration                    98
 9  COC(=O)/C=C(\C)c1ccccc1CBr [Compound 1.167]  mitochondrial respiration                    99
10  COC(=O)/C=C(/OC)c1ccccc1/C=C\c1cnn(-c2ccc(OC)cc2)c1 [Compound 1a.319]  mitochondrial respiration                    11
11  COC(=O)/C=C(/OC)c1ccccc1/C=C\c1ccn(-c2ccc(Cl)cc2)c1 [Compound 1a.305]  mitochondrial respiration                    30
12  COC(=O)/C=C(/OC)c1ccccc1CSc1nc(-c2ccccc2)cs1 [Compound 1a.162]  mitochondrial respiration                    76
13  COC(=O)/C=C(/OC)c1ccccc1/C=C/c1ccccc1 [Compound 1a.233]  mitochondrial respiration                    88
14  CCCCOC(=O)/C=C(/OC)c1ccccc1COc1ccc(C(C)=NOC)cc1C [Compound 1a.77]  mitochondrial respiration                    63
15  CO/N=C(\C)c1ccc(OCc2ccccc2/C(C)=C\C(=O)OC)c(C)c1 [Compound 1a.112]  mitochondrial respiration                    99
16  CO/N=C(\C)c1ccc(OCc2ccccc2/C(=C\C(=O)ON=C(C)C)OC)c(C)c1 [Compound 1a.82]  mitochondrial respiration                    94

----------
system: mitochondrial respiration; assay: Inhibition of mitochondrial respiration (rate of reduction of cytochrome c in isolated mitochondria), yeast; assay type: biochemical, Saccharomyces cerevisiae; settings: DMSO control
readout_label: % inhibition of respiration at 1.8 × 10^-5 mol/l test substance, Saccharomyces cerevisiae

                           molecular_string  reported_measurement
0  COC(=O)/C=C(/OC)c1ccccc1OCc1csc(-c2ccc(F)cc2)n1                   30%
1  COC(=O)/C=C(/OC)c1ccccc1/C=C/c1cnn(-c2ccc(OC)cc2)c1                   98%
2    COC(=O)/C=C(/OC)c1ccccc1/C=C\c1ccccc1C                   95%
3  COC(=O)/C=C(/OC)c1ccccc1COc1ccc(C(C)=NOCC(C)C)cc1C                   97%

----------
system: Pyricularia oryzae; assay type: in vivo; details: aqueous dispersion containing 250 ppm active ingredient; rice seedlings, protective, assessed after 6 days
readout_label: fungal attack, Pyricularia oryzae (%)

>>> print(df.to_string())
                                   molecule                      readout_label  reported_measurement
0  COC(=O)/C=C(/OC)c1ccccc1/C=C\c1ccccc1C [Compound 1a.248]  fungal attack, Pyricularia oryzae                    15
1  O=C(C=C(c1ccccc1)c1ccccc1)N1CCOCC1 [A, morpholide of β-phenylcinnamic acid, reference compound]  fungal attack, Pyricularia oryzae                    60
2  COC(=O)/C=C(/OC)c1ccccc1/C=C/c1csc(-c2ccc(Cl)cc2)n1 [Compound 1a.314]  fungal attack, Pyricularia oryzae                    15
3  COC(=O)/C=C(/OC)c1ccccc1/C=C/c1coc(-c2ccc(Cl)cc2)n1 [Compound 1a.302]  fungal attack, Pyricularia oryzae                    15
4  COC(=O)/C=C(/OC)c1ccccc1CON=C(C)c1ccc(Cl)cc1 [Compound 1a.356]  fungal attack, Pyricularia oryzae                    15
5  CO/N=C(\C)c1ccc(OCc2ccccc2/C(=C\C(=O)OC)OC)c(C)c1 [Compound 1a.72]  fungal attack, Pyricularia oryzae                    15
6  COC(=O)/C=C(/OC)c1ccccc1COc1nc(-c2ccccc2)cs1 [Compound 1a.181]  fungal attack, Pyricularia oryzae                    15
